method description: Pharmacokinetics in mice
Type: in vivo, CD1 mice
protocol conditions: male, CD1, mouse, plasma, po, single dose of 60 mg/kg given orally
parameter measured: half-life (h)
Give a bare numeral; the unit h is implied.

Value lookup for half-life; key = CN1CCN(C[C@H](O)CO[C@H]2CC[C@@]3(C)C(CCC4C3CC[C@]3(C)C(=O)CCC43)C2)CC1 (stereo partly shown)
2.67

---

// pEC50 lookup, one value per entry
System: SARS-CoV-2
method description: microbe, parasite or virus in culture
Format: cell-based
protocol conditions: Severe acute respiratory syndrome coronavirus 2, 60 h, read-out: half maximal effective concentration (EC50), 50% CPE inhibition
# pEC50: negative log10 of molar concentration; output just the value

>>> numeric_value("C[C@]12CC[C@H](OCCS(=O)(=O)N3CCOCC3)CC1CCC1C2CC[C@]2(C)C(=O)CCC12 (some centres unmarked)")
5.30
>>> numeric_value("CN1CCN(C[C@H](O)CO[C@H]2CC[C@@]3(C)C(CCC4C3CC[C@]3(C)C(=O)CCC43)C2)CC1 (some centres unmarked)")
6.05
>>> numeric_value("CCN(CC)CCCC(C)Nc1ccnc2cc(Cl)ccc12 (centres unmarked) [Chloroquine, reference compound]")
5.23
>>> numeric_value("CN1CCN(C[C@@H](O)CO[C@H]2CC[C@@]3(C)C(CCC4C3CC[C@]3(C)C(=O)CCC43)C2)CC1 (some centres unmarked)")
5.42

Now for the compound whose pEC50 we want.
Value lookup for pEC50; key = CN1CCN(CC(=O)O[C@H]2CC[C@@]3(C)C(CCC4C3CC[C@]3(C)C(=O)CCC43)C2)CC1 (some centres unmarked)
5.33
